System: DU-145 prostate
MEASUREMENT_PROTOCOL: NCI-60 one-dose screen, 48 h
EXPERIMENTAL_PARAMETERS: 10 µM unless noted
Protocol: Cells are grown in 96 well plates and exposed to the test compound for 48 hours. Compounds are tested at a single concentration, which is 10^-5 M for most compounds. The reported endpoint is percent growth (GI% or GIPRCNT), where numbers from 0 - 100% represent growth inhibition, and numbers from -100% - 0 represent cell death. For example, a value of 40 represents 60% growth inhibition. A value of 0 means no net growth occurred over the course of the experiment. […]
About 83,000 compounds went through this panel and 20% of them were active in at least one assay; those are over-represented in the sample as a whole. Calls of active or inactive are those of the source. How the source made its calls: active means growth percent below 10; inactive means the rest.
Outcomes: TRUE = active, FALSE = inactive

> print(dat)
                                   molecule  class.assignment
1     COC(=O)c1ccc(CSc2nnc(-c3ccncc3)o2)cc1             FALSE
2          CSc1nc2sc3cc(Cl)ccc3n2c(=N)c1C#N             FALSE
3  O=c1cc(-c2ccc(OCc3ccccc3)cc2)oc2c(I)c(OCc3ccccc3)cc(OCc3ccccc3)c12             FALSE
4                      Cn1nnnc1-c1ccc(N)cc1             FALSE
5  COc1cc(NC(=O)c2cccc(-c3cc(=O)c4c(OC)c(OC)c(OC)cc4o3)c2)cc(OC)c1OC             FALSE
6  COc1cc2c(cc1OC)-c1ccc3cc4c(cc3c1N(CCN1CCCC1)C2)OCO4             FALSE
7  Cn1c(NCCc2ccc(O)c(O)c2)nc2c1c(=O)n(Cc1ccc(Cl)cc1)c(=O)n2C             FALSE
8  CC(C)CCC[C@@H](C)[C@H]1CCC2C3=CCn4c(=O)ccc(=O)n4C3CC[C@@]21C (stereo partly drawn)              TRUE

Origin of the recorded values: PubChem BioAssay (NCI)
